Tested on: NCI-H522 lung
experiment.notes: NCI tumour cell line growth inhibition, 48 h
assay.endpoint: TGI (µM)
Please state the figure in µM; there is no need to write the unit.

INPUT: State the recorded TGI for this entry: `CCNCCNc1cc(-c2ccc(C(F)(F)F)cc2)c(C#N)c2nc3ccccc3n12`
OUTPUT: 3.66

INPUT: State the recorded TGI for this entry: `O=C1c2ccsc2C(=O)c2sc(CO)cc21`
OUTPUT: 0.259

INPUT: State the recorded TGI for this entry: CCCCC(CC)COC(=O)C[N+](C)(C)CCOC(c1ccccc1)c1ccccc1 (stereo unspecified)
OUTPUT: 3.67

INPUT: State the recorded TGI for this entry: `CCOC(=O)c1c(N2CCOCC2)[nH]c(=O)c(C(c2c(Cl)cccc2Cl)c2c(O)c(C(=O)OCC)c(N3CCOCC3)[nH]c2=O)c1O`
OUTPUT: 3.72

INPUT: State the recorded TGI for this entry: `COC1=C(OC)C(=O)C(Cc2c(C)nc3sccn23)=C(C)C1=O`
OUTPUT: 54.9

INPUT: State the recorded TGI for this entry: `CO/C=C(/C(=O)OC)c1ccccc1COc1cccc(C(F)(F)F)c1`
OUTPUT: 5.86
